assay: Drug concentration in C57BL/6 mouse Intestine at 2 mg/kg, sc measured for 60 min by ICP-MS analysis; assay type: ADME, organism-based; conditions: read-out: Ct
Attribute measured: concentration at 1 h (ng/mL)
Numbers only, in ng/mL.

Prompt: # return recorded concentration at 1 h for entry Cc1ccc(C(CNC(=O)c2cc3ccccc3s2)N(C)C)cc1 (stereo unspecified)
Completion: 936

----------
biological target: Nociceptin receptor (Homo sapiens); test: Agonist activity at human NOP receptor expressed in CHO-K1 cells assessed as […] beta-arrestin 2 recruitment measured after 1.5 hrs by PathHunter assay; assay type: functional, cell-based
Attribute measured: EC50 (µM)
One number for each entry, in µM.

Prompt: Fill in reported EC50 for this entry: Cc1ccc(C(CNC(=O)c2cc3ccccc3s2)N(C)C)cc1 (stereo unspecified)
Completion: 44.8

----------
target: Mu-type opioid receptor (Homo sapiens); experiment: Displacement of [3H]-Diprenorphine from human MOR receptor expressed in CHO-K1 cells assessed as inhibition constant measured for 1 hr by liquid scintillation counter analysis; format: cell-based
Attribute measured: Ki

Prompt: # return recorded Ki for input Cc1ccc(C(CNC(=O)c2cc3ccccc3s2)N(C)C)cc1 (stereo unspecified)
Completion: 0.3 nM

----------
target: Delta-type opioid receptor (Homo sapiens, UniProt P41143); assay: Displacement of [3H]-Diprenorphine from human DOR receptor expressed in CHO-K1 cells assessed as inhibition constant measured for 1 hr by liquid scintillation counter analysis
Sequence (P41143 whole entry): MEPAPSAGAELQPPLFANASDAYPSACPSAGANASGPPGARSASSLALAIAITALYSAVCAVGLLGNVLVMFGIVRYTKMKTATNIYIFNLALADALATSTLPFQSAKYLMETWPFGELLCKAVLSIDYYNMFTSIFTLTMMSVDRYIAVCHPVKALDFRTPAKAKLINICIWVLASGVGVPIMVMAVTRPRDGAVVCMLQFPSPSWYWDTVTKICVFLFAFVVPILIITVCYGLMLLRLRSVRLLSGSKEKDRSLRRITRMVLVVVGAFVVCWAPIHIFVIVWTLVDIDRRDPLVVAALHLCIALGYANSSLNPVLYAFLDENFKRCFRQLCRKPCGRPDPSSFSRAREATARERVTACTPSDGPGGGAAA
pKi: −log10 of the molar value.
Attribute measured: pKi

Prompt: Output measured pKi for this item: Cc1ccc(C(CNC(=O)c2cc3ccccc3s2)N(C)C)cc1 (stereo unspecified)
Completion: < 9.00

----------
target: UniProtKB P35372; test: Agonist activity at human mu opioid receptor expressed in CHO-K1 cells assessed as decrease in intracellular cAMP level measured after 1 hr by LANCE ultra cAMP assay; assay type: functional, cell-based
Attribute measured: EC50 (nM)
One number for each entry, in nM.

Prompt: Answer with the recorded EC50 of Cc1ccc(C(CNC(=O)c2cc3ccccc3s2)N(C)C)cc1 (stereo unspecified) only.
Completion: 0.23

----------
target: UniProt P35372; assay: Agonist activity at human mu opioid receptor expressed in CHO-K1 cells coexpressing Galpha15 assessed as increase in fluorescence of [ca2+]i by measuring maximum efficacy measured for 1.52 sec by FLIPR calcium assay relative to control; assay type: functional, cell-based; conditions: filed as agonist
Attribute measured: Emax

Cc1ccccc1C(CNC(=O)c1cc2ccccc2s1)N(C)C (stereo not given) | 90.8%
Cc1ccc2c(Cl)c(C(=O)NCC(c3ccccc3)N(C)C)sc2c1 (stereo not given) | 73.6%
CN(C)C(CNC(=O)c1sc2ccccc2c1Cl)c1ccccc1Cl (stereo not given) | 93.8%

Please go through the list and note Emax for each molecule.
1. CN(C)C(CNC(=O)c1cc2ccccc2s1)c1cccc(F)c1 (stereo not given)
2. CN(C)C(CNC(=O)c1cc2ccccc2s1)c1ccc(F)cc1 (stereo not given)
3. CN(C)C(CNC(=O)c1cc2ccccc2s1)C1CCCCC1 (stereo not given)
4. CN(C)C(CNC(=O)c1cc2ccccc2s1)c1ccccc1 (stereo not given)
5. CN(C)C(CNC(=O)c1cc2ccccc2s1)c1ccccc1F (stereo not given)
6. CN(C)C(CNC(=O)c1cc2ccccc2s1)c1ccc(Cl)cc1 (stereo not given)

Completion:
["106%", "117%", "91%", "99.5%", "105%", "112%"]

Dear colleague, could you please provide Emax for the molecules listed below?
1. Cc1ccc2c(Cl)c(C(=O)NCC(c3ccccc3Cl)N(C)C)sc2c1 (stereo not given)
2. CN(C)C(CNC(=O)c1cccs1)c1ccccc1Cl (stereo not given)
3. CN(C)C(CNC(=O)c1cc2ccccc2s1)c1cccc(Cl)c1 (stereo not given)
4. CN1CCc2ccccc2C1CNC(=O)c1ccc(Cl)c(Cl)c1 (stereo not given)
5. CN(C)C(CNC(=O)c1cc2ccccc2s1)c1cccs1 (stereo not given)

Completion:
1. 55%
2. 54.5%
3. 130%
4. 100%
5. 131%

List Emax for every entry below, keeping the order given.
1. CN(C)C(CNC(=O)c1sccc1Cl)c1ccccc1Cl (stereo not given)
2. Cc1ccc(C(CNC(=O)c2cc3ccccc3s2)N(C)C)cc1 (stereo not given)

Completion:
50.7%
114%

// batch mode: one Emax value per listed entry
1. Cc1ccc2cc(C(=O)NCC(c3ccccc3Cl)N(C)C)sc2c1 (stereo not given)
2. CN(C)C(CNC(=O)c1cc2ccccc2s1)c1ccccc1Cl (stereo not given)
3. CN(C)C(CNC(=O)c1cc2ccccc2s1)c1ccc(Br)cc1 (stereo not given)

Completion:
58.4%
66.7%
103%

Prompt: Answer with the recorded Emax of Cc1cccc(C(CNC(=O)c2cc3ccccc3s2)N(C)C)c1 (stereo not given) only.
Completion: 116%

----------
target: Mu-type opioid receptor (Homo sapiens); assay: Agonist activity at human mu opioid receptor expressed in CHO-K1 cells coexpressing Galpha15 assessed as increase in fluorescence of [ca2+]i measured for 1.52 sec by FLIPR calcium assay; format: functional, cell-based
Each entry falls into one class according to its EC50; the ranges are b0 (below 400 nM), b1 (400 nM to below 2000 nM), b2 (2000 nM or more)

Worked set:
Cc1ccc2c(Cl)c(C(=O)NCC(c3ccccc3Cl)N(C)C)sc2c1 (stereo unspecified) | b2
CN(C)C(CNC(=O)c1sccc1Cl)c1ccccc1Cl (stereo unspecified) | b1
Cc1ccc(C(CNC(=O)c2cc3ccccc3s2)N(C)C)cc1 (stereo unspecified) | b2

Prompt: Just checking, what class would you give CN(C)C(CNC(=O)c1sc2ccccc2c1Cl)c1ccccc1Cl (stereo unspecified) here?
Completion: b0

Prompt: The entry to classify is CN(C)C(CNC(=O)c1cc2ccccc2s1)c1ccccc1 (stereo unspecified) ; which class holds it?
Completion: b2

Prompt: The entry to classify is CN1CCc2ccccc2C1CNC(=O)c1ccc(Cl)c(Cl)c1 (stereo unspecified) ; which class holds it?
Completion: b0

Prompt: Bin this entry: CN(C)C(CNC(=O)c1cc2ccccc2s1)C1CCCCC1 (stereo unspecified)
Completion: b2

Prompt: Hello team, could you let me know which band the following compound falls into: CN(C)C(CNC(=O)c1cc2ccccc2s1)c1ccccc1Cl (stereo unspecified)
Completion: b0

Prompt: Which EC50 category applies to CN(C)C(CNC(=O)c1cc2ccccc2s1)c1cccc(F)c1 (stereo unspecified) here?
Completion: b1

----------
target: Nociceptin receptor (Homo sapiens, UniProt P41146)
Sequence (P41146 whole entry): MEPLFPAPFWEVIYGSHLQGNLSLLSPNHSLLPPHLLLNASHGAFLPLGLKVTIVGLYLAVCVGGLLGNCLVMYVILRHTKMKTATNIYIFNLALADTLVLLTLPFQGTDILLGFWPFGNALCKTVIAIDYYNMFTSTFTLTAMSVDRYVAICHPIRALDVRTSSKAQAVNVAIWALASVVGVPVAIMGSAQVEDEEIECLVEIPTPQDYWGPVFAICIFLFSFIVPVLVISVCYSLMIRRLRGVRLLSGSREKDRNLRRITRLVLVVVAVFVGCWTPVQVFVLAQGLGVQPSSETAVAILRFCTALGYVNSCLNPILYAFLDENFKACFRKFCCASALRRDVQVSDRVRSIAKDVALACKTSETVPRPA
Attribute measured: Ki (µM)
Numbers only, in µM.

Prompt: Fill in Ki for record Cc1ccc(C(CNC(=O)c2cc3ccccc3s2)N(C)C)cc1 (stereo unspecified)
Completion: 0.65

----------
molecular target: Delta-type opioid receptor (Homo sapiens); test: Agonist activity at human DOR receptor expressed in CHO-K1 cells assessed as decrease in intracellular cAMP level measured after 1 hr by LANCE ultra cAMP assay; format: functional, cell-based
Attribute measured: pEC50
Numbers only, as −log10 of the molar value.

Prompt: Provide only the value of recorded pEC50 for Cc1ccc(C(CNC(=O)c2cc3ccccc3s2)N(C)C)cc1 (stereo unspecified)
Completion: 8.67

----------
experiment: Drug concentration in C57BL/6 mouse brain at 2 mg/kg, sc measured for 5 min by ICP-MS analysis; type: ADME, organism-based; conditions: read-out: Ct
Attribute measured: concentration at 5 min (ng/mL)
Answers are plain numbers, in ng/mL.

Prompt: Report concentration at 5 min for Cc1ccc(C(CNC(=O)c2cc3ccccc3s2)N(C)C)cc1 (stereo unspecified)
Completion: 1110

----------
molecular target: UniProt P41146; assay: Agonist activity at human NOP receptor expressed in CHO-K1 cells assessed as decrease in intracellular cAMP level measured after 1 hr by LANCE ultra cAMP assay; format: functional, cell-based
Attribute measured: pEC50
One number for each entry, as −log10 of the molar value.

Prompt: Quick one: give measured pEC50 for Cc1ccc(C(CNC(=O)c2cc3ccccc3s2)N(C)C)cc1 (stereo unspecified)
Completion: 7.66

----------
experiment: Drug concentration in C57BL/6 mouse brain at 2 mg/kg, sc measured for 60 min by ICP-MS analysis; type: ADME, organism-based; conditions: read-out: Ct
Attribute measured: concentration at 1 h (ng/mL)
Give bare numbers, in ng/mL.

Prompt: Fill in concentration at 1 h for record Cc1ccc(C(CNC(=O)c2cc3ccccc3s2)N(C)C)cc1 (stereo unspecified)
Completion: 2030

----------
experiment: Drug concentration in C57BL/6 mouse Intestine at 2 mg/kg, sc measured for 5 min by ICP-MS analysis; type: ADME, organism-based; details: read-out: Ct
Attribute measured: concentration at 5 min (ng/mL)
Answers are plain numbers, in ng/mL.

Prompt: Quickly give me recorded concentration at 5 min for Cc1ccc(C(CNC(=O)c2cc3ccccc3s2)N(C)C)cc1 (stereo unspecified)
Completion: 515

----------
target: Mu-type opioid receptor (Homo sapiens, UniProt P35372); assay: Agonist activity at human mu opioid receptor expressed in CHO-K1 cells coexpressing Galpha15 assessed as increase in fluorescence of [ca2+]i measured for 1.52 sec by FLIPR calcium assay; format: functional, cell-based
Sequence (P35372 whole entry): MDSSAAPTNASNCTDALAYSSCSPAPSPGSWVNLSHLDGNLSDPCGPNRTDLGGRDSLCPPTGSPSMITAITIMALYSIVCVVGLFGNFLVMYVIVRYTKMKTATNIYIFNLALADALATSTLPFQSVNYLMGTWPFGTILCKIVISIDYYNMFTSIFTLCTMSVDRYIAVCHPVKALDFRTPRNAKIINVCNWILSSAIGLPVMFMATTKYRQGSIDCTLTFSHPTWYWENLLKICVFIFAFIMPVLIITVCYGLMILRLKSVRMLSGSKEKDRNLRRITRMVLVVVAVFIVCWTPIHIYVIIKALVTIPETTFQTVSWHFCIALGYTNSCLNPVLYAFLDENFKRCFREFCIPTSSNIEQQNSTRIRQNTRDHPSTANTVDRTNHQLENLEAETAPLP
Attribute measured: EC50 (nM)
Give bare numbers, in nM.

Examples with answers:
CN(C)C(CNC(=O)c1cccs1)c1ccccc1Cl (configuration not stated) | 400
Cc1ccc2c(Cl)c(C(=O)NCC(c3ccccc3)N(C)C)sc2c1 (configuration not stated) | 1620
CN(C)C(CNC(=O)c1cc2ccccc2s1)c1ccc(Br)cc1 (configuration not stated) | 150
CN(C)C(CNC(=O)c1cc2ccccc2s1)c1ccc(F)cc1 (configuration not stated) | 6.4
Cc1ccccc1C(CNC(=O)c1cc2ccccc2s1)N(C)C (configuration not stated) | 6480
CN(C)C(CNC(=O)c1cc2ccccc2s1)c1cccc(Cl)c1 (configuration not stated) | 2310
CN(C)C(CNC(=O)c1cc2ccccc2s1)c1ccc(Cl)cc1 (configuration not stated) | 1260
CN(C)C(CNC(=O)c1cc2ccccc2s1)c1cccs1 (configuration not stated) | 13.6

Give one value of EC50 per listed compound.
1. Cc1ccc2cc(C(=O)NCC(c3ccccc3Cl)N(C)C)sc2c1 (configuration not stated)
2. Cc1cccc(C(CNC(=O)c2cc3ccccc3s2)N(C)C)c1 (configuration not stated)
3. CN(C)C(CNC(=O)c1cc2ccccc2s1)c1ccccc1F (configuration not stated)

Completion:
1: 1890; 2: 4110; 3: 1240

Data origin: ChEMBL document CHEMBL5352416
